Measured values drawn from patent US20220332795A1 for this set.

hCD71, RLU for assorted binders
molecular target: T1, recombinant biotinylated human CD71 extracellular domain (human, UniProt P02786 89-760, biotinylated); experiment: solution ELISA
T1 construct: extracellular domain; also called hCD71; huCD71 ECD
T1 sequence (P02786 other isoform, or with tags, fused parts or gaps): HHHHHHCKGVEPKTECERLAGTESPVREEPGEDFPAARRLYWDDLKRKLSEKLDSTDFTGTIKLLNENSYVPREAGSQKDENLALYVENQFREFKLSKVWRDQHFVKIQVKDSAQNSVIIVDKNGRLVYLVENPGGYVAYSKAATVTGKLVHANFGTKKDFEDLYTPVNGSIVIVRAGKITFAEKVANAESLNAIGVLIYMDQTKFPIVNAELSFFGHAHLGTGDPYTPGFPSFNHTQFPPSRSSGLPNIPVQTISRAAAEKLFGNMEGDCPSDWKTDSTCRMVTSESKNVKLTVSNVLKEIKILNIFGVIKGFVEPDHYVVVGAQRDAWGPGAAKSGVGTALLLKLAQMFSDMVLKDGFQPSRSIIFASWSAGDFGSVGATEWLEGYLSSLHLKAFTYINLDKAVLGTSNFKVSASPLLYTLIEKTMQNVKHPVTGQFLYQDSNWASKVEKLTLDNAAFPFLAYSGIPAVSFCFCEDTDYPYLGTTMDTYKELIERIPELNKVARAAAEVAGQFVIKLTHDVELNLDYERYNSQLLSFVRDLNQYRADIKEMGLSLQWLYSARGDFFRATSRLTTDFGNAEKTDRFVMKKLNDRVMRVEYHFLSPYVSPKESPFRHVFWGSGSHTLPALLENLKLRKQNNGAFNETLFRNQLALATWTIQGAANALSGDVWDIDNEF
Numbers only here, please. The scale is RLU.

SEQ ID NO 179 (designed binder, FN3 domain) MLPAPKNLVVSRVTEDSARLSWTAPDAAFDSFPIAYAEPRPDGEAIVLTVPGSERSYDLTGLKPGTEYSVLIHGVKGGLLSSPLSAFFTT	3.68e+06

# ---- query binder ----
Would you mind telling me what hCD71, RLU value was observed for SEQ ID NO 194 (designed binder, FN3 domain) MLPAPKNLVVSRVTEDSARLSWTAPDAAFDSFYIAYAEPRPDGEAIALLVPGSERSYDLTGLKPGTEYSVLIHGVKGGLLSSPLSAIVTT ?
682000
